System: Fc region (Jackson ImmunoResearch Laboratories, Inc.) labeled with horseradish peroxidase (HRP)
procedure.details: ELISA of recombinant phages displaying polypeptides (Example 1, 6)
Format: binding, human
reported.conditions: recombinant T7 phage displaying the polypeptide; absorbance at 415 nm; control 0.101
endpoint.label: O.D. 415

>>> reading("15 (TGRGRSARYDPRTGTWRSSIAYGGG; IgG binding peptide, 2F2) [compound 15]")
0.396
>>> reading("14 (SWRRRGSSYDPRTGTWRSSIAYGGG; IgG binding peptide, 2H1) [compound 14]")
0.282
>>> reading("19 (GAVYRRSFYDPRTGTWRSSIAYRGG; IgG binding peptide, 2F9) [compound 19]")
0.353
>>> reading("16 (HWVNGRSGYDPRTGTWRSSIAYGGG; IgG binding peptide, 2F4) [compound 16]")
0.373
>>> reading("12 (AGSRRAHGYDPRTGTWRSSIAYGGG; IgG binding peptide, 2A4) [compound 12]")
0.267
>>> reading("18 (GSVVRWRGYDPRTGTWRSSIAYGGG; IgG binding peptide, 2F7) [compound 18]")
0.36

###

System: Fc region (Jackson ImmunoResearch Laboratories, Inc.) labeled with horseradish peroxidase (HRP)
procedure.details: ELISA of recombinant phages displaying polypeptides (Example 2, 6)
Assay type: binding, human
reported.conditions: recombinant T7 phage displaying the polypeptide; absorbance at 415 nm; control 0.11
endpoint.label: O.D. 415

>>> reading("43 (DAAWHLGELVWATYYDPETGTWVPDWDAMSSR; IgG binding peptide, pep15) [compound 43]")
0.813
>>> reading("46 (DAAWHLGELVWATYYDPETGTWLPDWSQMRPQ; IgG binding peptide, pep18) [compound 46]")
0.243
>>> reading("48 (DAAWHLGELVWATYYDPETGTWQPDWSVMKSL; IgG binding peptide, pep20) [compound 48]")
0.373
>>> reading("50 (DAAWHLGELVWATYYDPETGTWIPDWRAMSQF; IgG binding peptide, pep23) [compound 50]")
0.244
>>> reading("37 (DAAWHLGELVWATYYDPETGTWLPDWDYMSSK; IgG binding peptide, pep4) [compound 37]")
0.235

I = 27 (DAAWHLGELVWATYYDPETGTWEPDWQRMLGQ; IgG binding peptide, pep24) [compound 27]
II = 26 (DAAWHLGELVWATYYDPETGTWLPDWQTMAQK; IgG binding peptide, pep21) [compound 26]
Exercise: Lab log: flag the item ( I or II ) with the smaller O.D. 415 figure. Your answer should be the label of the entry you select.
Key: I

###

Test system: Fc region (Jackson ImmunoResearch Laboratories, Inc.) labeled with horseradish peroxidase (HRP)
procedure.details: ELISA of recombinant phages displaying polypeptides (Example 2, 6)
Format: binding, human
reported.conditions: recombinant T7 phage displaying the polypeptide; absorbance at 415 nm; control 0.098
endpoint.label: O.D. 415

>>> reading("81 (LNDFLTPTAWYDPETGTWYDAAWHLGELVWATYYDPETGTWLPDWQTMAQK; IgG binding peptide, p31) [compound 81]")
0.235
>>> reading("72 (FVSSLPNSAMYDPETGTWYDAAWHLGELVWATYYDPETGTWEPDWQRMLGQ; IgG binding peptide, p28) [compound 72]")
0.229
>>> reading("66 (WPLNAPSSAFYDPETGTWYDAAWHLGELVWATYYDPETGTWEPDWQRMLGQ; IgG binding peptide, p13) [compound 66]")
0.182
>>> reading("64 (IPYGFPGRGEYDPETGTWYDAAWHLGELVWATYYDPETGTWEPDWQRMLGQ; IgG binding peptide, p4) [compound 64]")
0.213
>>> reading("68 (FLVGLHAGAVYDPETGTWYDAAWHLGELVWATYYDPETGTWEPDWQRMLGQ; IgG binding peptide, p15_2) [compound 68]")
0.186
>>> reading("71 (DGVGPGSRGVYDPETGTWYDAAWHLGELVWATYYDPETGTWEPDWQRMLGQ; IgG binding peptide, p27) [compound 71]")
0.219
